These data points were gathered from ChEMBL document CHEMBL4028893.

# Test system: MIA PaCa-2
# Experiment: Cytotoxicity against human MIAPaCa2 cells after 48 hrs by CellTiter-Glo assay
# Condition context: MIA PaCa-2, 48 h
Each record here notes measured IC50.

>  <Smiles input>
COc1ncc(-c2ccc3c(Nc4cc(Oc5cc(F)cc(F)c5)cc(C(=O)O)c4)c(S(=O)(=O)NC4CC4)cnc3c2)c(OC)n1

>  <Bound sign>
=

>  <IC50 / µM>
28.4

$$$$
>  <Smiles input>
NS(=O)(=O)c1ccc(Cc2c(-c3ccc(F)c(F)c3)nn(-c3nc(C(=O)O)cs3)c2O)cc1

>  <Bound sign>
>

>  <IC50 / µM>
57

$$$$

* * *

Each record here notes measured pIC50.
# Target system: Isocitrate dehydrogenase [NADP] cytoplasmic (Homo sapiens, UniProt O75874)
# Sequence (O75874 whole entry): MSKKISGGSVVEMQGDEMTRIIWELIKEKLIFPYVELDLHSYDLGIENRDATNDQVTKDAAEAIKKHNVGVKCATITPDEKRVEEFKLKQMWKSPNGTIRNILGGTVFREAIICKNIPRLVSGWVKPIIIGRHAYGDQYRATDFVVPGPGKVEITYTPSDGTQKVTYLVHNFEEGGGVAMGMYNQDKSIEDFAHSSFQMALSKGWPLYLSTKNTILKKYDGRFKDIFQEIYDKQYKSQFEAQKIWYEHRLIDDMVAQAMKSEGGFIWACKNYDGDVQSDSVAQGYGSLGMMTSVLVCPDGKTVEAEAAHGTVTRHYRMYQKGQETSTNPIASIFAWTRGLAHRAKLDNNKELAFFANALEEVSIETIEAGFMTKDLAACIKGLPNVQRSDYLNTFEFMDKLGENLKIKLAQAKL
# Experiment: Inhibition of wild type IDH1 (unknown origin) using isocitrate as substrate preincubated for 30 mins followed by substrate addition in presence of NADP+ measured up to 5 mins by resorufin-based fluorescence assay
pIC50: −log10 of the molar value.
Recorded metric: pIC50

>  <Smiles input>
NS(=O)(=O)c1ccc(Cc2c(-c3cccc(-c4ccccc4)c3)nn(-c3nc(C(=O)O)cs3)c2O)cc1

>  <Recorded result>
4.32

$$$$
>  <Smiles input>
NS(=O)(=O)c1ccc(Cc2cn(-c3nc(C(=O)O)cs3)nc2-c2ccccc2)cc1

>  <Recorded result>
< 4.24

$$$$
>  <Smiles input>
NS(=O)(=O)c1ccc(Cc2c(-c3cccc(-c4ccccc4)c3)nn(-c3nc(C(=O)O)cs3)c2C(F)(F)F)cc1

>  <Recorded result>
4.47

$$$$
>  <Smiles input>
NS(=O)(=O)c1ccc(Nc2cn(-c3nc(C(=O)O)cs3)nc2-c2cccc(-c3ccccc3)c2)cc1

>  <Recorded result>
< 4.24

$$$$
>  <Smiles input>
NS(=O)(=O)c1ccc(Cc2c(-c3cccc(-c4ccccc4)c3)nn(-c3nc(C(=O)O)cs3)c2CC2CC2)cc1

>  <Recorded result>
4.53

$$$$
>  <Smiles input>
NS(=O)(=O)c1ccc(Cc2c(-c3ccccc3)nn(-c3nc(C(=O)O)cs3)c2CC2CC2)cc1

>  <Recorded result>
4.32

$$$$
>  <Smiles input>
NS(=O)(=O)c1ccc(Cc2c(-c3cccc(Br)c3)nn(-c3nc(C(=O)O)cs3)c2O)cc1

>  <Recorded result>
< 4.24

$$$$
>  <Smiles input>
NS(=O)(=O)c1ccc(Cc2c(-c3ccccc3)nn(-c3nc(C(=O)O)cs3)c2-c2ccncc2)cc1

>  <Recorded result>
< 4.24

$$$$
>  <Smiles input>
NS(=O)(=O)c1ccc(Cc2c(-c3ccc(F)c(F)c3)nn(-c3nc(C(=O)O)cs3)c2O)cc1

>  <Recorded result>
< 4.24

$$$$
>  <Smiles input>
COc1ncc(-c2ccc3c(Nc4cc(Oc5cc(F)cc(F)c5)cc(C(=O)O)c4)c(S(=O)(=O)NC4CC4)cnc3c2)c(OC)n1

>  <Recorded result>
< 4.24

$$$$
>  <Smiles input>
NS(=O)(=O)c1ccc(Nc2cn(-c3nc(C(=O)O)cs3)nc2-c2ccccc2)cc1

>  <Recorded result>
< 4.24

$$$$
>  <Smiles input>
NS(=O)(=O)c1ccc(Cc2c(-c3ccccc3)nn(-c3nc(C(=O)O)cs3)c2-c2cccnc2)cc1

>  <Recorded result>
< 4.24

$$$$
>  <Smiles input>
NS(=O)(=O)c1ccc(Cc2cn(-c3nc(C(=O)O)cs3)nc2-c2ccc(F)c(F)c2)cc1

>  <Recorded result>
< 4.24

$$$$
>  <Smiles input>
NS(=O)(=O)c1ccc(Cc2c(-c3ccccc3)nn(-c3nc(C(=O)O)cs3)c2C2CC2)cc1

>  <Recorded result>
< 4.24

$$$$
>  <Smiles input>
NS(=O)(=O)c1ccc(Cc2cn(-c3nc(C(=O)O)cs3)nc2-c2cccc(-c3ccccc3)c2)cc1

>  <Recorded result>
4.32

$$$$
>  <Smiles input>
NS(=O)(=O)c1ccc(Cc2c(-c3cccc(-c4ccccc4)c3)nn(-c3nc(C(=O)O)cs3)c2C2CC2)cc1

>  <Recorded result>
4.47

$$$$
>  <Smiles input>
Cc1nc2ccc(NC(=O)CCNC(=O)CCCc3ccc(CC(C(=O)O)C(=O)O)cc3)cc2s1

>  <Recorded result>
< 4.24

$$$$

* * *

# Experiment: Drug level in human A673 cells by LC-MS/MS analysis
# Type: ADME, cell-based
Recorded metric: Drug uptake

>  <Smiles input>
NS(=O)(=O)c1ccc(Cc2cn(-c3nc(C(=O)O)cs3)nc2-c2ccccc2)cc1

>  <Recorded metric>
Drug uptake

>  <Recorded result>
Active

$$$$
>  <Smiles input>
NS(=O)(=O)c1ccc(Cc2c(-c3ccc(F)c(F)c3)nn(-c3nc(C(=O)O)cs3)c2O)cc1

>  <Recorded metric>
Drug uptake

>  <Recorded result>
Active

$$$$
>  <Smiles input>
Cc1nc2ccc(NC(=O)CCNC(=O)CCCc3ccc(CC(C(=O)O)C(=O)O)cc3)cc2s1

>  <Recorded metric>
Drug uptake

>  <Recorded result>
Active

$$$$
>  <Smiles input>
NS(=O)(=O)c1ccc(Cc2c(-c3ccccc3)nn(-c3nc(C(=O)O)cs3)c2C2CC2)cc1

>  <Recorded metric>
Drug uptake

>  <Recorded result>
Active

$$$$

* * *

# Target system: UniProt V9HWB9
# Experiment: Inhibition of LDH in human MIAPaCa2 cells assessed as reduction in lactate production preincubated for 2 hrs measured after 30 mins by high throughput fluorescence assay
# Assay type: cell-based

>  <Smiles input>
COc1ncc(-c2ccc3c(Nc4cc(Oc5cc(F)cc(F)c5)cc(C(=O)O)c4)c(S(=O)(=O)NC4CC4)cnc3c2)c(OC)n1

>  <Endpoint unit>
µM

>  <IC50>
12.6

$$$$

* * *

# Target system: L-lactate dehydrogenase B chain (Homo sapiens)
# Sequence (P07195 whole entry): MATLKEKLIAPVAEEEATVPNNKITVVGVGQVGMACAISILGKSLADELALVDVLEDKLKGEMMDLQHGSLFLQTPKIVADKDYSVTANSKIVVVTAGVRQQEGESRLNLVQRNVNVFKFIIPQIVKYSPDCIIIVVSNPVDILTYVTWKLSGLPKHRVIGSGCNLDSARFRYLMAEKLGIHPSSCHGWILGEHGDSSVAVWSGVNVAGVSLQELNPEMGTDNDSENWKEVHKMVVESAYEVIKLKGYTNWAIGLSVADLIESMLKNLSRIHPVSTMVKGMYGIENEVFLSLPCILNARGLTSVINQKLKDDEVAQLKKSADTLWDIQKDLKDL
# Experiment: Inhibition of human erythrocytes LDHB using sodium pyruvate as substrate after 5 mins in presence of […] by diaphorase/resazurin based fluorescence assay
Recorded metric: IC50 (nM)

>  <Smiles input>
NS(=O)(=O)c1ccc(Cc2c(-c3ccccc3)nn(-c3nc(C(=O)O)cs3)c2-c2ccncc2)cc1

>  <Recorded result>
2820

$$$$
>  <Smiles input>
Cc1nc2ccc(NC(=O)CCNC(=O)CCCc3ccc(CC(C(=O)O)C(=O)O)cc3)cc2s1

>  <Recorded result>
9200

$$$$
>  <Smiles input>
NS(=O)(=O)c1ccc(Cc2c(-c3cccc(Br)c3)nn(-c3nc(C(=O)O)cs3)c2O)cc1

>  <Recorded result>
1510

$$$$
>  <Smiles input>
NS(=O)(=O)c1ccc(Cc2cn(-c3nc(C(=O)O)cs3)nc2-c2ccc(F)c(F)c2)cc1

>  <Recorded result>
129

$$$$

* * *

A set of compounds tested on L-lactate dehydrogenase A chain (Homo sapiens, UniProt P00338), with measured IC50:

>  <Smiles input>
O=C(O)c1csc(-n2nc(-c3ccc(F)cc3)cc2O)n1

>  <Bound sign>
>

>  <IC50 (µM)>
57

$$$$
>  <Smiles input>
O=C(O)c1csc(-n2nc(-c3cccc(-c4ccccc4F)c3)cc2O)n1

>  <Bound sign>
>

>  <IC50 (µM)>
57

$$$$
>  <Smiles input>
Cc1nc2ccc(NC(=O)CCNC(=O)CCCc3ccc(CC(C(=O)O)C(=O)O)cc3)cc2s1

>  <Bound sign>
=

>  <IC50 (µM)>
1.34

$$$$
>  <Smiles input>
O=C(O)c1csc(-n2nc(-c3cccc(-c4ccccc4)c3)cc2O)n1

>  <Bound sign>
>

>  <IC50 (µM)>
57

$$$$
>  <Smiles input>
O=C(O)c1csc(-n2nc(-c3ccc(Cl)cc3)cc2C(F)(F)F)n1

>  <Bound sign>
=

>  <IC50 (µM)>
27.7

$$$$
>  <Smiles input>
NC(=O)c1csc(-n2nc(-c3cccc(-c4ccccc4)c3)c(Cc3ccc(S(N)(=O)=O)cc3)c2O)n1

>  <Bound sign>
=

>  <IC50 (µM)>
27.7

$$$$
>  <Smiles input>
O=C(O)c1csc(-n2nc(-c3ccccc3Cl)cc2C(F)(F)F)n1

>  <Bound sign>
>

>  <IC50 (µM)>
57

$$$$
>  <Smiles input>
NS(=O)(=O)N1CCN(Cc2cn(-c3nc(C(=O)O)cs3)nc2-c2ccccc2)CC1

>  <Bound sign>
=

>  <IC50 (µM)>
17.3

$$$$
>  <Smiles input>
O=C(O)c1csc(-n2nc(C3CCCCC3)cc2O)n1

>  <Bound sign>
>

>  <IC50 (µM)>
57

$$$$
>  <Smiles input>
CNS(=O)(=O)c1ccc(Cc2c(-c3cccc(-c4ccccc4)c3)nn(-c3nc(C(=O)O)cs3)c2O)cc1

>  <Bound sign>
>

>  <IC50 (µM)>
57

$$$$
>  <Smiles input>
O=C(O)c1csc(-n2nc(-c3ccccc3)cc2C(F)(F)F)n1

>  <Bound sign>
=

>  <IC50 (µM)>
28.8

$$$$
>  <Smiles input>
Cc1c(Cc2ccc(S(N)(=O)=O)cc2)c(-c2ccccc2)nn1-c1nc(C(=O)O)cs1

>  <Bound sign>
=

>  <IC50 (µM)>
0.042

$$$$
>  <Smiles input>
O=C(O)c1csc(-n2nc(-c3cccc(Cl)c3)cc2O)n1

>  <Bound sign>
>

>  <IC50 (µM)>
57

$$$$
>  <Smiles input>
O=C(O)c1csc(-n2nc(-c3cccc4ccccc34)cc2O)n1

>  <Bound sign>
>

>  <IC50 (µM)>
57

$$$$
>  <Smiles input>
NS(=O)(=O)c1ccc(Oc2c(-c3ccccc3)nn(-c3nc(C(=O)O)cs3)c2C2CC2)cc1

>  <Bound sign>
=

>  <IC50 (µM)>
0.065

$$$$
